Tested on: Staphylococcus aureus
assay.method.text: microbe, parasite or virus in culture
protocol.conditions: ATCC 43300, 18 h, ASSAY_TEST Inhibition of Bacterial Growth, detection method Absorption (OD600), MEDIA CAMHB, plate type 384well, NBS, CORNING #3640
Description: Antibacterial activity against Staphylococcus aureus MRSA ATCC 43300 (CO-ADD:GP_020); MIC in CAMBH media, using NBS plates, by OD(600)
Record form. Attribute: MIC. Fill in for each entry.

Report MIC for `CC(C)CCc1sc(NC(=O)c2cc(NC(=O)c3cc4ccccc4cn3)cn2C)nc1C(=O)NCCCN(C)C.O=C(O)C(F)(F)F` tested on Staphylococcus aureus.
> 32 µg/mL

Repeat for the following compound: `COC(=O)CCC(=O)Nc1cc(C(=O)Nc2cc(C(=O)Nc3nc(C(=O)NCCCN(C)C)c(CCC(C)C)s3)n(C)c2)n(C)c1`
> 32 µg/mL

Repeat for the following compound: `CSc1ccc(/C=C/c2ccc3cc(C(=O)Nc4cc(C(=O)Nc5cc(C(=O)NCCN6CCOCC6)n(C)c5)n(C)c4)ccc3n2)cc1.O=C(O)C(F)(F)F`
> 32 µg/mL

Repeat for the following compound: `Cn1cc(NC(=O)c2ccc(/C=C/c3cnc4ccccc4c3)cc2)cc1C(=O)Nc1nc(C(=O)NCCN2CCOCC2)c(CCc2ccccc2)s1.O=C(O)C(F)(F)F.O=C(O)C(F)(F)F`
> 32 µg/mL

Repeat for the following compound: `COc1ccc(/C=C/c2ccc(C(=O)Nc3cc(C(=O)Nc4cc(C(=O)NCCN5CCOCC5)n(CCCc5cn(CCc6ccccc6)nn5)c4)n(C)c3)cn2)cc1`
> 32 µg/mL

Repeat for the following compound: `CN(C)CCNC(=O)c1cc(NC(=O)c2cc(NC(=O)c3ccc(/C=C/c4ccc(N(C)C)cc4)nc3)cn2C)cn1C.O=C(O)C(F)(F)F`
1 µg/mL

Repeat for the following compound: `Cn1cc(NC(=O)c2cc(NC(=O)c3ccccc3)cn2C)cc1C(=O)NCCC(=N)N.O=C(O)C(F)(F)F`
> 32 µg/mL

Repeat for the following compound: `Cn1cc(NC(=O)c2cc(NC(=O)c3ccc(/C=C/c4cnc5ccccc5c4)cc3)cn2C)cc1C(=O)NCC[N+]1([O-])CCCCC1.O=C(O)C(F)(F)F`
> 32 µg/mL

Repeat for the following compound: `Cn1cc(NC(=O)c2cc(NC(=N)c3ccccc3)cn2C)cc1C(=O)NCCC(=N)N.O=C(O)C(F)(F)F.O=C(O)C(F)(F)F`
> 32 µM

Repeat for the following compound: `COc1cccc(/C=C/c2ccc(C(=O)Nc3cc(C(=O)Nc4cc(C(=O)NCCCN(C)C)n(C)c4)n(C)c3)cc2)c1.O=C(O)C(F)(F)F`
> 32 µg/mL

Repeat for the following compound: `CC(C)c1sc(NC(=O)c2cc(NC(=O)c3cc(NC(=O)c4cc5ccccc5cn4)cn3C)cn2C)nc1C(=O)NCCN1CCOCC1.O=C(O)C(F)(F)F`
> 32 µg/mL

Repeat for the following compound: `Cn1cc(NC(=O)c2ccc(/C=C/c3cnc4ccccc4c3)cc2)cc1C(=O)Nc1nc(C(=O)NCCN2CCOCC2)c(C2CCCCC2)s1.O=C(O)C(F)(F)F.O=C(O)C(F)(F)F`
> 32 µg/mL

Repeat for the following compound: `COCCOC1CCN(CCNC(=O)c2cc(NC(=O)c3cc(NC(=O)c4ccc(/C=C/c5ccc(OC)cc5)cc4)cn3C)cn2C)CC1.O=S(=O)(O)O`
16 µg/mL

====

Record form. Attribute: MIC. Fill in for each entry.
Tested on: Acinetobacter baumannii
assay.method.text: microbe, parasite or virus in culture
protocol.conditions: ATCC 19606, 18 h, ASSAY_TEST Inhibition of Bacterial Growth, detection method Absorption (OD600), MEDIA CAMHB, plate type 384well, NBS, CORNING #3640
Description: Antibacterial activity against Acinetobacter baumannii ATCC 19606 (CO-ADD:GN_034); MIC in CAMBH media using NBS plates, by OD600

Find the recorded MIC belonging to `CN(C)CCNC(=O)c1cc(NC(=O)c2cc(NC(=O)c3ccc(/C=C/c4ccc(N(C)C)cc4)nc3)cn2C)cn1C.O=C(O)C(F)(F)F.O=C(O)C(F)(F)F` and report it.
> 32 µg/mL

Repeat for the following molecule: `CN(C)c1ccc(/C=C/c2ccc(C(=O)Nc3cc(C(=O)Nc4cc(C(=O)NCCN5CCOCC5)n(C)c4)n(C)c3)cn2)cc1.O=C(O)C(F)(F)F`
> 32 µg/mL

Repeat for the following molecule: `CC(C)CCn1cc(NC(=O)c2cc(NC(=O)c3cc(NC(=N)N)cn3C)cn2C)cc1C(=O)NCCCN(C)C.O=C(O)C(F)(F)F.O=C(O)C(F)(F)F`
> 32 µg/mL

Repeat for the following molecule: `COc1ccc(/C=C/c2ccc(C(=O)Nc3cc(C(=O)Nc4nc(C(=O)NCCN5CCOCC5)c(CCc5ccccc5)s4)n(C)c3)cn2)cc1.O=C(O)C(F)(F)F.O=C(O)C(F)(F)F`
> 32 µg/mL

Repeat for the following molecule: `COc1cccc(/C=C/c2ccc(C(=O)Nc3cc(C(=O)Nc4cc(C(=O)NCCCN(C)C)n(C)c4)n(C)c3)cc2)c1.O=C(O)C(F)(F)F`
> 32 µg/mL

Repeat for the following molecule: `CC(=O)/C=C/c1ccc(C(=O)Nc2cc(C(=O)Nc3cc(C(=O)NCCN4CCOCC4)n(C)c3)n(C)c2)cc1.O=C(O)C(F)(F)F`
> 32 µg/mL

Repeat for the following molecule: `CC(C)c1sc(NC(=O)c2cc(NC(=O)c3cc(NC(=O)c4cc(NC=O)cn4C)cn3C)cn2C)nc1C(=O)NCCCN(C)C.O=C(O)C(F)(F)F`
> 32 µg/mL

Repeat for the following molecule: `COC(=O)CCC(=O)Nc1cc(C(=O)Nc2cc(C(=O)Nc3nc(C(=O)NCCCN(C)C)c(CCC(C)C)s3)n(C)c2)n(C)c1`
> 32 µg/mL

Repeat for the following molecule: `Cn1cc(NC(=O)c2ccc(/C=C/c3cnc4ccccc4c3)cc2)cc1C(=O)NCCN1CCOCC1.O=C(O)C(F)(F)F.O=C(O)C(F)(F)F`
> 32 µg/mL

Repeat for the following molecule: `CC(C)c1sc(NC(=O)c2cc(NC(=O)c3cc(NC(=O)c4cc5ccccc5cn4)cn3C)cn2C)nc1C(=O)NCCN1CCOCC1.O=C(O)C(F)(F)F`
> 32 µg/mL

Repeat for the following molecule: `Cn1cc(NC(=O)c2cc(NC(=N)c3cnc4ccccc4c3)cn2C)cc1C(=O)NCCC(=N)N.O=C(O)C(F)(F)F.O=C(O)C(F)(F)F.O=C(O)C(F)(F)F`
> 32 µg/mL

Repeat for the following molecule: `Cn1cc(NC(=O)c2cc(NC(=O)C(C)(C)C)cn2C)cc1C(=O)NCCC(=N)N.O=C(O)C(F)(F)F`
> 32 µg/mL

Repeat for the following molecule: `CN(C)CCNC(=O)c1cc(NC(=O)c2cc(NC(=O)c3ccc(/C=C/c4cnc5ccccc5c4)cc3)cn2C)cn1C.O=C(O)C(F)(F)F.O=C(O)C(F)(F)F`
> 32 µg/mL

====

Record form. Attribute: MIC. Fill in for each entry.
System: Staphylococcus aureus
assay.method.text: microbe, parasite or virus in culture
protocol.conditions: ATCC 43300, 18 h, ASSAY_TEST Inhibition of Bacterial Growth, detection method Absorption (OD600), MEDIA CAMHB, plate type 384well, NBS, CORNING #3640
Respond with the bare value in µg/mL.

Find the recorded MIC belonging to `COc1cccc(C(=N)Nc2cc(C(=O)Nc3nc(C(=O)NCCN4CCOCC4)c(CCc4ccccc4)s3)n(C)c2)c1.O=C(O)C(F)(F)F.O=C(O)C(F)(F)F` and report it.
32

Repeat for the following compound: `CN(C)c1ccc(/C=C/c2ccc(C(=O)Nc3cc(C(=O)Nc4cc(C(=O)NCCN5CCOCC5)n(C)c4)n(C)c3)cn2)cc1.O=C(O)C(F)(F)F`
1

====

Tested on: HEK293
assay.method.text: cells
Format: functional, Homo sapiens, ATCC CRL1573
protocol.conditions: Homo sapiens, ATCC CRL1573, HEK293; ASSAY_TEST Inhibition of Cell Viability; detection method Resazurin; Fluorescence (ex560/em590); MEDIA DMEM with 10% FBS; plate type 384well; TC; CORNING #3712; time 18 hr; read-out: CC50
parameter: CC50 (µg/mL)
Respond with the bare value in µg/mL.

Find the recorded CC50 belonging to `Cn1cc(NC(=O)c2ccc(/C=C/c3ccncc3)cc2)cc1C(=O)Nc1cc(C(=O)NCCN2CCOCC2)n(CCCN2CCN(Cc3cccc4ccccc34)CC2)c1.O=C(O)C(F)(F)F.O=C(O)C(F)(F)F.O=C(O)C(F)(F)F.O=C(O)C(F)(F)F` and report it.
2.03

Repeat for the following compound: `CN(C)c1ccc(/C=C/c2ccc(C(=O)Nc3cc(C(=O)Nc4cc(C(=O)NCCN5CCOCC5)n(C)c4)n(C)c3)cn2)cc1.O=C(O)C(F)(F)F`
1.11

Repeat for the following compound: `CC(C)CCc1sc(NC(=O)c2cc(NC(=O)c3cc(NC(=N)c4cnc5ccccc5c4)cn3C)cn2C)nc1C(=O)NCCCN(C)C.O=C(O)C(F)(F)F.O=C(O)C(F)(F)F`
1.18
